Tested on: off-target genomic sites
Assay: Off-target oligo insertion based assay in HEK293_Cas9 cells, dgRNAs and sgRNAs (Tables 23, 24)
Type: cell-based, human
Conditions: Table 24; TTR sgRNAs in HekCas9 cells, insertion detection method
Strand notation (5' to 3'): a small letter for the sugar, then the base; units joined by * are phosphorothioate-linked, units joined directly phosphodiester-linked; [ ] holds rarer units or linkages, { } end groups; capitals alone tell only the bases. m = 2'-O-methyl; r = 2'-OH (RNA)
reported_property: # Sites (off-target integration sites detected)

- G000484: TTR sgRNA modified sequence, Human, SEQ ID No. 91; guide sequence of CR003367 (nucleic acid) guide: mA*mG*mA*rCrArCrCrArArArUrCrUrUrArCrUrGrGrArGrUrUrUrUrArGrAmGmCmUmAmGmAmAmAmUmAmGmCrArArGrUrUrArArArArUrArArGrGrCrUrArGrUrCrCrGrUrUrArUrCrAmAmCmUmUmGmAmAmAmAmAmGmUmGmGmCmAmCmCmGmAmGmUmCmGmGmUmGmCmU*mU*mU*mU: 7
- G000497: TTR sgRNA modified sequence, Human, SEQ ID No. 104; guide sequence of CR003335 (nucleic acid) guide: mC*mU*mG*rCrUrCrCrUrCrCrUrCrUrGrCrCrUrUrGrCrGrUrUrUrUrArGrAmGmCmUmAmGmAmAmAmUmAmGmCrArArGrUrUrArArArArUrArArGrGrCrUrArGrUrCrCrGrUrUrArUrCrAmAmCmUmUmGmAmAmAmAmAmGmUmGmGmCmAmCmCmGmAmGmUmCmGmGmUmGmCmU*mU*mU*mU: 26
- G000501: TTR sgRNA modified sequence, Human, SEQ ID No. 108; guide sequence of CR005300 (nucleic acid) guide: mU*mC*mA*rCrArGrArArArCrArCrUrCrArCrCrGrUrArGrUrUrUrUrArGrAmGmCmUmAmGmAmAmAmUmAmGmCrArArGrUrUrArArArArUrArArGrGrCrUrArGrUrCrCrGrUrUrArUrCrAmAmCmUmUmGmAmAmAmAmAmGmUmGmGmCmAmCmCmGmAmGmUmCmGmGmUmGmCmU*mU*mU*mU: 4
- G000500: TTR sgRNA modified sequence, Human, SEQ ID No. 107; guide sequence of CR003337 (nucleic acid) guide: mC*mC*mA*rGrUrCrCrArGrCrArArGrGrCrArGrArGrGrGrUrUrUrUrArGrAmGmCmUmAmGmAmAmAmUmAmGmCrArArGrUrUrArArArArUrArArGrGrCrUrArGrUrCrCrGrUrUrArUrCrAmAmCmUmUmGmAmAmAmAmAmGmUmGmGmCmAmCmCmGmAmGmUmCmGmGmUmGmCmU*mU*mU*mU: 46
- G000499: TTR sgRNA modified sequence, Human, SEQ ID No. 106; guide sequence of CR005303 (nucleic acid) guide: mU*mG*mA*rArUrCrCrArArGrUrGrUrCrCrUrCrUrGrArGrUrUrUrUrArGrAmGmCmUmAmGmAmAmAmUmAmGmCrArArGrUrUrArArArArUrArArGrGrCrUrArGrUrCrCrGrUrUrArUrCrAmAmCmUmUmGmAmAmAmAmAmGmUmGmGmCmAmCmCmGmAmGmUmCmGmGmUmGmCmU*mU*mU*mU: 4
- G000572: TTR sgRNA modified sequence, Human, SEQ ID No. 113; guide sequence of CR003385 (nucleic acid) guide: mC*mC*mC*rCrUrArCrUrCrCrUrArUrUrCrCrArCrCrArGrUrUrUrUrArGrAmGmCmUmAmGmAmAmAmUmAmGmCrArArGrUrUrArArArArUrArArGrGrCrUrArGrUrCrCrGrUrUrArUrCrAmAmCmUmUmGmAmAmAmAmAmGmUmGmGmCmAmCmCmGmAmGmUmCmGmGmUmGmCmU*mU*mU*mU: 15
